# Method: Clearance in mouse at 3 mg/kg, iv
# Format: ADME, organism-based
# Design: dose 3 mg/kg, route intravenous
# Details: in vivo
Experimental Endpoint: clearance (mL/min/kg)
Write the answer as a number in mL/min/kg, unit excluded.

Prompt: Value lookup for clearance; key = CCCCNc1ncc(C(=O)NCc2ccc(-n3ccnc3)cc2)c(N[C@H]2CC[C@H](O)CC2)n1
Response: 94.5

The reported numbers originate from ChEMBL document CHEMBL3091375.
